Data credit: ChEMBL document CHEMBL6127012

Experiment: Lipophilicity, logD of the compound
Assay type: physicochemical
Settings: octanol/water
assayMetric: logD
Respond using a number only.

Ask | Could you share which logD value was measured for Cc1nc(CC2CCN(c3ccc(-c4ccc(C[C@H](C)O)cc4)cc3)CC2)nc(C(=O)NCC(=O)O)c1O ?
Reply | 1.2

---

Test: AUC (0 to 24 hrs) in rat at 10 mg/kg, po measured on day 4
Assay type: ADME, organism-based
Details: in vivo, time 4 day
Listing of recorded AUC at 96 h by entry.
Answer in ng·h/mL, number only, no unit symbol.

Cc1nc(CC2CCN(c3ccc(-c4ccc(C[C@H](C)O)cc4)cc3)CC2)nc(C(=O)NCC(=O)O)c1O	16200

Continue with the compound presented below.
Ask | Could you share which AUC at 96 h value was measured for Cc1nc(CC2CCN(c3ccc(-c4ccc(C[C@@H](C)O)cc4)cc3)CC2)nc(C(=O)NCC(=O)O)c1O ?
Reply | 15500

---

Experiment: cells
Settings: Homo sapiens, Hep3B
Description: Induction of EPO production in human Hep3B cells
pEC50: −log10 of the molar value.
Please mark label 1 if the recorded pEC50 is equal to or greater than 6, and label 0 if it falls below.

Below are worked cases with known answers.
Cc1ccc(N2CCC(Cc3nc(C)c(O)c(C(=O)NCC(=O)O)n3)CC2)cc1	label 0
CC(C)(C)c1ccc(N2CCC(Cc3nc(C(=O)NCC(=O)O)c(O)c(C(F)F)n3)CC2)cc1	label 0
Cc1nc(CC2CCN(c3ccc(F)cc3)CC2)nc(C(=O)NCC(=O)O)c1O	label 0
Cc1nc(CC2CCN(c3ccc(Cc4ccc(CC(C)O)cc4)cc3)CC2)nc(C(=O)NCC(=O)O)c1O (stereo not given)	label 0
Cc1nc(Cc2cnc(-c3ccc(C(C)(C)C)cc3)s2)nc(C(=O)NCC(=O)O)c1O	label 0

Ask | Check the entry Cc1nc(CC2CCN(c3ccc(C(F)(F)F)cc3)CC2)nc(C(=O)NCC(=O)O)c1O : does pEC50 equal or exceed 6?
Reply | label 0

Ask | Check the entry Cc1nc(Cc2ccc(-c3ccc(C(C)(C)C)cc3)cn2)nc(C(=O)NCC(=O)O)c1O : does pEC50 equal or exceed 6?
Reply | label 0

Ask | Check the entry Cc1nc(CC2CCN(c3ccc(Cc4ccc(CO)cc4)cc3)CC2)nc(C(=O)NCC(=O)O)c1O : does pEC50 equal or exceed 6?
Reply | label 0

Ask | Check the entry Cc1nc(CC2CCN(c3ccc(-c4ccc(C[C@@H](C)O)cc4)cc3)CC2)nc(C(=O)NCC(=O)O)c1O : does pEC50 equal or exceed 6?
Reply | label 1

---

Listing of recorded Kp by entry.
Assay: Partition coefficient, Kp of compound in rat liver to plasma
Type: ADME, cell-free
Details: liver and plasma
Respond using a number only.

Cc1nc(CC2CCN(c3ccc(Cc4ccccc4)cc3)CC2)nc(C(=O)NCC(=O)O)c1O	9.6

Ask | Could you share which Kp value was measured for Cc1nc(CC2CCN(c3ccc(-c4ccc(CC(C)O)cc4)cc3)CC2)nc(C(=O)NCC(=O)O)c1O (racemic) ?
Reply | 1.5

---

Tested on: Cynomolgus monkey
Assay: Anti-leukemia activity in cynomolgus monkey assessed as dose required to cause 10 fold increase in plasma EPO level
assayMetric: EC10 (mg/kg)
Answer in mg/kg, number only, no unit symbol.

Cc1nc(CC2CCN(c3ccc(Cc4ccccc4)cc3)CC2)nc(C(=O)NCC(=O)O)c1O	0.5

Ask | Could you share which EC10 value was measured for Cc1nc(CC2CCN(c3ccc(-c4ccc(C[C@H](C)O)cc4)cc3)CC2)nc(C(=O)NCC(=O)O)c1O ?
Reply | 3.5

Ask | Could you share which EC10 value was measured for Cc1nc(CC2CCN(c3ccc(-c4ccccc4)cc3)CC2)nc(C(=O)NCC(=O)O)c1O ?
Reply | 1.1

Ask | Could you share which EC10 value was measured for Cc1nc(Cc2ccc(-c3ccccc3)cc2)nc(C(=O)NCC(=O)O)c1O ?
Reply | 2.2

Ask | Could you share which EC10 value was measured for Cc1nc(CC2CCN(c3ccc(-c4ccc(C[C@@H](C)O)cc4)cc3)CC2)nc(C(=O)NCC(=O)O)c1O ?
Reply | 2.4
